System: lambsquarters
Assay: Test C preemergence/postemergence greenhouse plant response rating 0 to 100
Type: in vivo, Chenopodium album
Settings: Rate 16 g/ha; POSTEMERGENCE
reported_metric: Plant response rating (0 to 100), Lambsquarters
Please give only the number in your answer, with no unit.

Data request: For C#CCOc1cc(-c2nn3c(c2Br)CCCC3)c(F)cc1Cl , what is its reported Plant response rating (0 to 100), Lambsquarters?
Data returned: 80

Data request: For COCN1C(=O)COc2cc(F)c(-c3nn4c(c3Cl)CCCC4)cc21 , what is its reported Plant response rating (0 to 100), Lambsquarters?
Data returned: 100

Data request: For C#CCN1C(=O)COc2cc(F)c(-c3nn4c(c3Br)CCCC4)cc21 , what is its reported Plant response rating (0 to 100), Lambsquarters?
Data returned: 100

Data request: For COc1cc(-c2nn3c(c2Cl)CCCC3)c(F)cc1Cl , what is its reported Plant response rating (0 to 100), Lambsquarters?
Data returned: 60

Data request: For CCC(C)Oc1cc(-c2nn3c(c2Cl)CCCC3)c(F)cc1Cl (centres unmarked) , what is its reported Plant response rating (0 to 100), Lambsquarters?
Data returned: 60
